Origin of values: paper PMC9516332

Measured pIC50, listed per entry for reference.
Tested on: 134 cancer cell lines
Experiment: Cell viability assay (ATPlite, 72 hours), IC50 on cancer cell line panel
Conditions: Homo sapiens, A704, read-out: IC50 in cell proliferation assay, cell line A-704
Quick note: pIC50 values are minus log10 of concentrations in mol/L.

{"columns": ["MOL SMILES", "pIC50"],
 "data": [
  ["CN1CCN(c2ccc(C(=O)Nc3n[nH]c4ccc(Cc5cc(F)cc(F)c5)cc34)c(NC3CCOCC3)c2)CC1", 5.16]
]}

Continue with the molecule presented below.
Please give the measured pIC50 for this molecule: CC(C)(C)c1nc(-c2cccc(NS(=O)(=O)c3c(F)cccc3F)c2F)c(-c2ccnc(N)n2)s1
6.09

---

Molecular target: panel of 255 wild-type kinases (Homo sapiens)
Assay: Kinase panel profiling at 1 µmol/L (MSA or IMAP), percentage inhibition
Format: biochemical
Conditions: kinase HIPK1; 1 µmol/L single concentration; read-out: %-inhibition at 1 µmol/L, HIPK1
QUANTITY MEASURED: inhibition at 1 µM (%)
Supply the numeric figure in %, leaving out any unit text.

Consider the following illustrative entries.
{"columns": ["COMPOUND", "TARGET OR SYSTEM", "UNIT TAG", "inhibition at 1 µM"],
 "data": [
  ["C=CC(=O)N1CCC([C@@H]2CCNc3c(C(N)=O)c(-c4ccc(Oc5ccccc5)cc4)nn32)CC1 [zanubrutinib]", "panel of 255 wild-type kinases (Homo sapiens)", "%", -3.58],
  ["FC(F)(F)c1ccc(CNc2ccc(Cc3c[nH]c4ncc(Cl)cc34)cn2)cn1 [pexidartinib]", "panel of 255 wild-type kinases (Homo sapiens)", "%", 4.72],
  ["COc1ccc(CN2C3CC2CN(c2ccc(-c4cc(OCC(C)(C)O)cn5ncc(C#N)c45)cn2)C3)cn1 [selpercatinib]", "panel of 255 wild-type kinases (Homo sapiens)", "%", -0.334]
]}

Continue with the compound presented below.
Please give the measured inhibition at 1 µM for this compound: Cn1cc(-c2cc3c(N4CCN(c5ncc([C@@](C)(N)c6ccc(F)cc6)cn5)CC4)ncnn3c2)cn1 [avapritinib]
1.58

---

Target: panel of 255 wild-type kinases (Homo sapiens)
Experiment: Kinase panel profiling at 1 µmol/L (MSA or IMAP), percentage inhibition
Type: biochemical
Conditions: CaMK2β kinase assay; 1 µmol/L single concentration; read-out: %-inhibition CaMK2β
QUANTITY MEASURED: inhibition at 1 µM (%)
Supply the numeric figure in %, leaving out any unit text.

{"columns": ["MOL SMILES", "RECORDED VALUE"],
 "data": [
  ["CCn1c(=O)c(-c2cc(NC(=O)Nc3ccccc3)c(F)cc2Br)cc2cnc(NC)cc21", 1.19],
  ["O=C(Nc1cnn2ccc(N3CCC[C@@H]3c3cc(F)ccc3F)nc12)N1CC[C@H](O)C1", 0.902],
  ["Cn1cnc2c(F)c(Nc3ccc(Br)cc3F)c(C(=O)NOCCO)cc21", 2.18],
  ["C[C@H](Nc1ncnc2nc[nH]c12)c1cc2cccc(Cl)c2c(=O)n1-c1ccccc1", -7.37]
]}

Please give the measured inhibition at 1 µM for this compound: CCc1nc(C(N)=O)c(Nc2ccc(N3CCC(N4CCN(C)CC4)CC3)c(OC)c2)nc1NC1CCOCC1
24

Now the compound Cn1cc(-c2cc3c(N4CCN(c5ncc([C@@](C)(N)c6ccc(F)cc6)cn5)CC4)ncnn3c2)cn1
0.895

---

Measured log10 of IC50, listed per entry for reference.
System: 134 cancer cell lines
Experiment: Cell viability assay (ATPlite, 72 hours), IC50 on cancer cell line panel
Details: Homo sapiens, MKN-45, read-out: IC50 in cell proliferation assay, MKN45 cell line (MET amplification)
Units before log transform: µM; reported quantity: IC50; transform: log10.

Consider the following illustrative entries.
{"columns": ["MOL SMILES", "QUANTITY MEASURED", "RECORDED VALUE"],
 "data": [
  ["Cc1cc(Nc2ncnc3ccc(NC4=NC(C)(C)CO4)cc23)ccc1Oc1ccn2ncnc2c1", "log10 of IC50", 1.23],
  ["C[C@H](Nc1ncnc2nc[nH]c12)c1cc2cccc(Cl)c2c(=O)n1-c1ccccc1", "log10 of IC50", 0.37],
  ["CC(=O)Nc1cccc(-n2c(=O)n(C3CC3)c(=O)c3c(Nc4ccc(I)cc4F)n(C)c(=O)c(C)c32)c1", "log10 of IC50", -1.08],
  ["Cn1cnc2c(F)c(Nc3ccc(Br)cc3F)c(C(=O)NOCCO)cc21", "log10 of IC50", 0.06],
  ["CN1CCN(c2ccc(C(=O)Nc3n[nH]c4ccc(Cc5cc(F)cc(F)c5)cc34)c(NC3CCOCC3)c2)CC1", "log10 of IC50", 1.07]
]}

State its log10 of IC50 on 134 cancer cell lines: CCN1CCN(c2ccc(Nc3cc(N(C)C(=O)Nc4c(Cl)c(OC)cc(OC)c4Cl)ncn3)cc2)CC1
0.63

---

Target: panel of 255 wild-type kinases (Homo sapiens, UniProt Q08881)
Sequence (Q08881 whole entry): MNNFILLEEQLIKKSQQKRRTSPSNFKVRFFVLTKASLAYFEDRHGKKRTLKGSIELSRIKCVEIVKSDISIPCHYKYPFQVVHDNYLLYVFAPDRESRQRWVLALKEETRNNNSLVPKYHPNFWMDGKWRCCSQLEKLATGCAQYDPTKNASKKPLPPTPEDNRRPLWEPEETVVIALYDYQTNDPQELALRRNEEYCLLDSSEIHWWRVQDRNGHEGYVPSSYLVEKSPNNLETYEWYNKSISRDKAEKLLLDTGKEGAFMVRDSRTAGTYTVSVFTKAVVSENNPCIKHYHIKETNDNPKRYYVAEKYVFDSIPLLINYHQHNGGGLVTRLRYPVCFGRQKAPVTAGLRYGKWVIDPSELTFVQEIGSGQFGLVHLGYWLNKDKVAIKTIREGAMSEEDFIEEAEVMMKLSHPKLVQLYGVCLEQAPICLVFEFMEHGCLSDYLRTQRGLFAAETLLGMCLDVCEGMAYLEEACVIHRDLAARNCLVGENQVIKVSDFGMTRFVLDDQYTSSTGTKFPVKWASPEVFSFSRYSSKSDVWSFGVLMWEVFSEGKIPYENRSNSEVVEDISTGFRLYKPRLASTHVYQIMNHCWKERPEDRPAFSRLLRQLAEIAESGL
Experiment: Kinase panel profiling at 1 µmol/L (MSA or IMAP), percentage inhibition
Type: biochemical
Conditions: kinase ITK; 1 µmol/L single concentration; read-out: %-inhibition at 1 µmol/L, ITK
QUANTITY MEASURED: inhibition at 1 µM (%)
Supply the numeric figure in %, leaving out any unit text.

Consider the following illustrative entries.
{"columns": ["MOL SMILES", "UNIT TAG", "inhibition at 1 µM"],
 "data": [
  ["C[C@H]1Oc2cc(cnc2N)-c2c(nn(C)c2C#N)CN(C)C(=O)c2ccc(F)cc21", "%", 14],
  ["COc1ccc(CN2C3CC2CN(c2ccc(-c4cc(OCC(C)(C)O)cn5ncc(C#N)c45)cn2)C3)cn1", "%", 79],
  ["Cc1nc(NC(=O)N2CCC[C@H]2C(N)=O)sc1-c1ccnc(C(C)(C)C(F)(F)F)c1", "%", 9],
  ["CCc1nc(C(N)=O)c(Nc2ccc(N3CCC(N4CCN(C)CC4)CC3)c(OC)c2)nc1NC1CCOCC1", "%", 92],
  ["COC(=O)N[C@@H](C)CNc1nccc(-c2cn(C(C)C)nc2-c2cc(Cl)cc(NS(C)(=O)=O)c2F)n1", "%", 3.49]
]}

Please give the measured inhibition at 1 µM for this molecule: CCn1c(=O)c(-c2cc(NC(=O)Nc3ccccc3)c(F)cc2Br)cc2cnc(NC)cc21
1.24

Now the molecule FC(F)(F)c1ccc(CNc2ccc(Cc3c[nH]c4ncc(Cl)cc34)cn2)cn1
9

---

Biological target: panel of 255 wild-type kinases (Homo sapiens, UniProt Q05513)
Sequence (Q05513 whole entry): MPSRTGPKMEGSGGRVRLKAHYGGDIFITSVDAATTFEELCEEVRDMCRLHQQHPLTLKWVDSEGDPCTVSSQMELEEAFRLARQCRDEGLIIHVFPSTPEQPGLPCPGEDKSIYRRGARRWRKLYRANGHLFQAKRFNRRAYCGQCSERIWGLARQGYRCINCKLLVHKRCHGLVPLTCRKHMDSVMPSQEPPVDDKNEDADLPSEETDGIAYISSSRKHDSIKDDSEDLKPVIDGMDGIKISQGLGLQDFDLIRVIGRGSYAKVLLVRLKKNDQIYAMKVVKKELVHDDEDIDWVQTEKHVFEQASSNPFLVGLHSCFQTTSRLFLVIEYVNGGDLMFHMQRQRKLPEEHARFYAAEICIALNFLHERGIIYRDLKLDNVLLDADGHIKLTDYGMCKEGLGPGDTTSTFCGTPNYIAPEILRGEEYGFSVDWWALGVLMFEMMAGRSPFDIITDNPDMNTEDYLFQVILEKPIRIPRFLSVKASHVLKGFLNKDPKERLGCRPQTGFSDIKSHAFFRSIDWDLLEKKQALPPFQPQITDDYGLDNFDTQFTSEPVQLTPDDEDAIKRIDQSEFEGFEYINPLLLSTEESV
Experiment: Kinase panel profiling at 1 µmol/L (MSA or IMAP), percentage inhibition
Type: biochemical
Settings: kinase PKCζ; 1 µmol/L single concentration; read-out: %-inhibition at 1 µmol/L, PKCζ
QUANTITY MEASURED: inhibition at 1 µM (%)
Supply the numeric figure in %, leaving out any unit text.

Consider the following illustrative entries.
{"columns": ["MOL SMILES", "inhibition at 1 µM (%)"],
 "data": [
  ["COc1cc2ncnc(Nc3ccc(F)c(Cl)c3)c2cc1NC(=O)/C=C/CN1CCCCC1", 24],
  ["C[C@H](Nc1ncnc2nc[nH]c12)c1cc2cccc(Cl)c2c(=O)n1-c1ccccc1", 16],
  ["CCc1nc(C(N)=O)c(Nc2ccc(N3CCC(N4CCN(C)CC4)CC3)c(OC)c2)nc1NC1CCOCC1", 21],
  ["Cn1cnc2c(F)c(Nc3ccc(Br)cc3F)c(C(=O)NOCCO)cc21", 10],
  ["CCN1CCN(c2ccc(Nc3cc(N(C)C(=O)Nc4c(Cl)c(OC)cc(OC)c4Cl)ncn3)cc2)CC1", 3.18]
]}

Please give the measured inhibition at 1 µM for this compound: C=CC(=O)N1CCC([C@@H]2CCNc3c(C(N)=O)c(-c4ccc(Oc5ccccc5)cc4)nn32)CC1
0.367

Now the compound CN1CCN(c2ccc(C(=O)Nc3n[nH]c4ccc(Cc5cc(F)cc(F)c5)cc34)c(NC3CCOCC3)c2)CC1
17

Now the compound FC(F)(F)c1ccc(CNc2ccc(Cc3c[nH]c4ncc(Cl)cc34)cn2)cn1
13

Now the compound Cc1cc(Nc2ncnc3ccc(NC4=NC(C)(C)CO4)cc23)ccc1Oc1ccn2ncnc2c1
-1.11

Now the compound Cn1cc(-c2cc3c(N4CCN(c5ncc([C@@](C)(N)c6ccc(F)cc6)cn5)CC4)ncnn3c2)cn1
-0.226

Now the compound CO[C@]1(C(=O)N[C@@H](C)c2ccc(-n3cc(F)cn3)nc2)CC[C@H](c2nc(C)cc(Nc3cc(C)[nH]n3)n2)CC1
-0.213

---

Measured inhibition at 1 µM, listed per entry for reference.
Molecular target: panel of 255 wild-type kinases (Homo sapiens, UniProt Q13557)
Sequence (Q13557 whole entry): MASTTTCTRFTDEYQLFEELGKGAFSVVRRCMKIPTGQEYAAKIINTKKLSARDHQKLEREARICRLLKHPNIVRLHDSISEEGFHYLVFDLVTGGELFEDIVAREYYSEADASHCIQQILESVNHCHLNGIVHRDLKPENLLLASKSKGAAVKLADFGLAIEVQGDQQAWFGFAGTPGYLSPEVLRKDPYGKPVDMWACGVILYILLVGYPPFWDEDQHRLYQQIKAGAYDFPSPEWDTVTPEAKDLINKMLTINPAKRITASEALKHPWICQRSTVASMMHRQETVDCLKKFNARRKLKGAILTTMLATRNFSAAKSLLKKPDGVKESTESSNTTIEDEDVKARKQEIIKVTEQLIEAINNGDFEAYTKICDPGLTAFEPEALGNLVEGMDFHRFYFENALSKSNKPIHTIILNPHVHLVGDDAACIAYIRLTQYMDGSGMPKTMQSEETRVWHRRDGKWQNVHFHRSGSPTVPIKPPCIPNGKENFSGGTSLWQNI
Experiment: Kinase panel profiling at 1 µmol/L (MSA or IMAP), percentage inhibition
Assay type: biochemical
Conditions: CaMK2δ kinase assay; 1 µmol/L single concentration; read-out: %-inhibition CaMK2δ
Supply the numeric figure in %, leaving out any unit text.

Consider the following illustrative entries.
{"columns": ["MOLECULE", "inhibition at 1 µM (%)"],
 "data": [
  ["CO[C@]1(C(=O)N[C@@H](C)c2ccc(-n3cc(F)cn3)nc2)CC[C@H](c2nc(C)cc(Nc3cc(C)[nH]n3)n2)CC1 [pralsetinib]", -1],
  ["C[C@H](Nc1ncnc2nc[nH]c12)c1cc2cccc(Cl)c2c(=O)n1-c1ccccc1 [duvelisib]", 4],
  ["Cn1cnc2c(F)c(Nc3ccc(Br)cc3F)c(C(=O)NOCCO)cc21 [binimetinib]", -4]
]}

Continue with the molecule presented below.
Please give the measured inhibition at 1 µM for this molecule: Cc1cc(Nc2ncnc3ccc(NC4=NC(C)(C)CO4)cc23)ccc1Oc1ccn2ncnc2c1 [tucatinib]
-3
